Below, each of the compounds is paired with its reported IC50 value.
- measurement-target: full-length beta-Catenin (Uniprot ID P35222) (Homo sapiens)
- Construct: 10 nM full-length beta-Catenin (Uniprot ID P35222)
- Sequence (P35222 whole entry): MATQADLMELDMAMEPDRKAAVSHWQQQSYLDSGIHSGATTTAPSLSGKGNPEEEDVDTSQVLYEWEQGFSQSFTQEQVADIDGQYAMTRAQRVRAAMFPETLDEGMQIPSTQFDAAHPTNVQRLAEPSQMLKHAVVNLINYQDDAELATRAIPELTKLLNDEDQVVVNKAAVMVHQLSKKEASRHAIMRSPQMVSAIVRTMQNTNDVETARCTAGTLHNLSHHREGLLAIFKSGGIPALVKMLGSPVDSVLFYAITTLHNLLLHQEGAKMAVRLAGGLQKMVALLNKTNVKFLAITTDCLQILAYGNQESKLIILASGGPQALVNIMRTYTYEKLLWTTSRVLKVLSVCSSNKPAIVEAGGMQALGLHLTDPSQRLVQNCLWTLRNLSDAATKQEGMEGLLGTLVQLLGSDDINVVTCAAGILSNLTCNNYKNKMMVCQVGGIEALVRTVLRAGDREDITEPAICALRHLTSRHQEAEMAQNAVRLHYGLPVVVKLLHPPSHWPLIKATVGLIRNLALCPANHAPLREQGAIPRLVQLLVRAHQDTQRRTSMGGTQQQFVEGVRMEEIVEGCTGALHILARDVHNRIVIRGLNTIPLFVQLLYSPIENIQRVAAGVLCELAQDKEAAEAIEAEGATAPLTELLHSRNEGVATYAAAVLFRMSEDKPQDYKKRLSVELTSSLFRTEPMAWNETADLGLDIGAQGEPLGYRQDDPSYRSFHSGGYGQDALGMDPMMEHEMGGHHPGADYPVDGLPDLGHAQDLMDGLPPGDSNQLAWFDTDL
- protocol-summary: Fluorescence polarization IC50 (beta-catenin / 5FAM-TCF4 10-53 competition)
- Format: binding
- cond: fluorescence polarization; read-out: beta-Catenin FP IC50
Answer with a number only, understood to be in µM.

{"compound": "CC(=O)N1CCC[C@]12CC=CCCCC1(CCCC=CCCCOC(=O)N3CC[C@@](C(=O)N[C@@H](Cc4ccsc4)C(=O)N[C@@H](Cc4csc5ccccc45)C(=O)N[C@@H](CCC(N)=O)C(N)=O)(C3)NC(=O)[C@H](CC(C)C)NC(=O)[C@H](Cc3ccccc3)NC(=O)[C@H](C)NC(=O)[C@H](C)NC(=O)[C@H](CC(=O)O)NC(=O)[C@H](CC(=O)O)NC1=O)NC(=O)[C@H](CC(N)=O)NC(=O)[C@H](CC(=O)O)NC2=O (some centres unmarked) [I-1517]", "measurement-target": "full-length beta-Catenin (Uniprot ID P35222) (Homo sapiens)", "recorded-endpoint": "IC50", "readout-number": 0.032}

// below: IC50 requested for another compound
In: # get_value(readout='IC50', item= CC(=O)N1CCC[C@]12CC=CCCCC1(CCCC=CCCCOC(=O)N3CC[C@@](C(=O)N[C@@H](Cc4ccsc4)C(=O)N[C@@H](Cc4csc5ccccc45)C(=O)N[C@@H](CO)C(N)=O)(C3)NC(=O)[C@H](CC(C)C)NC(=O)[C@H](Cc3ccccc3)NC(=O)[C@H](C)NC(=O)[C@H](C)NC(=O)[C@H](CC(=O)O)NC(=O)[C@H](CC(=O)O)NC1=O)NC(=O)[C@H](CC(C)(C)C)NC(=O)[C@H](CC(=O)O)NC2=O (some centres unmarked) [I-1493] )
Out: 0.01
